Quick reference: IC50 of the listed items.
- system.tested: UniProt P13612
- Sequence (P13612 whole entry): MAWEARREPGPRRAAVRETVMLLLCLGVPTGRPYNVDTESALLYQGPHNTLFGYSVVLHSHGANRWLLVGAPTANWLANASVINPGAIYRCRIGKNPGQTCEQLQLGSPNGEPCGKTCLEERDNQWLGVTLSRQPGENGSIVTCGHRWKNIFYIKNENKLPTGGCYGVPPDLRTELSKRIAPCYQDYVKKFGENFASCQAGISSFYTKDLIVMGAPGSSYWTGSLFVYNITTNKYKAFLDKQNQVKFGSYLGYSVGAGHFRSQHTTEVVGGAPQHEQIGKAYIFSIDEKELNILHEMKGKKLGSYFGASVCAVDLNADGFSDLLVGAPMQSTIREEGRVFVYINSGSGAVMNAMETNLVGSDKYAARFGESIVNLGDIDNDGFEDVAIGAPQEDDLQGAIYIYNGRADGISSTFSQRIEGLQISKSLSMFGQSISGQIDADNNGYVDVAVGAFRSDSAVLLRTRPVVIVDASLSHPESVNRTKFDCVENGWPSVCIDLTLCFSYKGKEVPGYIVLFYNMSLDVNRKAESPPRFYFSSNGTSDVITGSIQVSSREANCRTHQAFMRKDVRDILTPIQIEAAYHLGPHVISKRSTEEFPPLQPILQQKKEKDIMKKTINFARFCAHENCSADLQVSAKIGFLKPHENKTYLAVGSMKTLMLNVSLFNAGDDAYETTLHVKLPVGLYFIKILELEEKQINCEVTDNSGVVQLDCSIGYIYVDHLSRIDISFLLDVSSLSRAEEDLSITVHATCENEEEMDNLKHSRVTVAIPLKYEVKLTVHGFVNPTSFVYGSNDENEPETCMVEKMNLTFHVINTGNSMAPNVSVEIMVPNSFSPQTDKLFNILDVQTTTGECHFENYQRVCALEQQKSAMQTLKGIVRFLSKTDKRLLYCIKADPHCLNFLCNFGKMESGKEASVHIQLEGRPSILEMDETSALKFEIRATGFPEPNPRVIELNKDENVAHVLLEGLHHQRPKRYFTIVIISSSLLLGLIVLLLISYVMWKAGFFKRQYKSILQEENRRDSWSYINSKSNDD
- test.details: Displacement of [125I]VCAMIg from VLA4 expressed in Jurkat cells
test.readout: IC50 (nM)

>>> measurement("O=C(O)c1[nH]c(CN(C2CCCCC2)S(=O)(=O)c2cc(Cl)cc(Cl)c2)nc1Cc1ccc2ccccc2c1")
285
>>> measurement("O=C(O)c1nc(CN(C2CCCCC2)S(=O)(=O)c2cc(Cl)cc(Cl)c2)[nH]c1Cc1ccc(-c2ccccc2)cc1")
237
>>> measurement("O=C(O)C(Cc1ccccc1)N1C[C@@H]2CCN(S(=O)(=O)c3cc(Cl)cc(Cl)c3)[C@@H]2C1=O (stereo partly specified)")
2100
>>> measurement("O=C(O)[C@H](Cc1ccccc1)NC(=O)[C@@H]1CCCN1S(=O)(=O)c1cc(Cl)cc(Cl)c1")
1.4
>>> measurement("CC(C)C(c1nc(Cc2ccc3ccccc3c2)c(C(=O)O)[nH]1)N(C)S(=O)(=O)c1cc(Cl)cc(Cl)c1 (stereo unspecified)")
2540
>>> measurement("COc1ccccc1-c1ccc(C[C@H](NC(=O)[C@@H]2CCCN2S(=O)(=O)c2cc(Cl)cc(Cl)c2)C(=O)O)cc1")
0.64

---

- system.tested: Integrin alpha-4 (Homo sapiens) (UniProt P13612)
- test.details: Displacement of [125I]VCAMIg from VLA4 expressed in Jurkat cells at 100 uM
- Assay type: cell-based
Quick reference: inhibition of the listed items.
test.readout: inhibition (%)

>>> measurement("O=C(O)c1nc(C2CCCN2S(=O)(=O)c2cc(Cl)cc(Cl)c2)sc1-c1ccc2ccccc2c1 (centres undefined)")
19
>>> measurement("O=C(O)c1[nH]c(C2CCCN2S(=O)(=O)c2cc(Cl)cc(Cl)c2)nc1-c1ccc2ccccc2c1 (centres undefined)")
8
>>> measurement("O=C(O)c1[nH]c(C2CCCN2S(=O)(=O)c2cc(Cl)cc(Cl)c2)nc1Cc1ccc2ccccc2c1 (centres undefined)")
30
>>> measurement("O=C(O)c1[nH]c(CN(C2CCCCC2)S(=O)(=O)c2cc(Cl)cc(Cl)c2)nc1-c1ccc(-c2ccccc2)cc1")
45
